Source of measurements: PubChem BioAssay (NCATS)

- Method summary: Primary qHTS for small molecule stabilizers of the endoplasmic reticulum resident proteome: Secreted ER Calcium Modulated Protein (SERCaMP) assay (AID 1508630); also: % is scaled to controls: 0 for no effect and ±100 for the full control effect
- Condition: SH-SY5Y GLuc-SERCaMP (Gaussia luciferase released on ER calcium loss) secretion, thapsigargin, luminescence; series mostly up to 38.4 µM
Results filed as inconclusive are left out. Calls of active or inactive are those of the source. Calls follow the shape of the dose curve; as a rule, active = well fitted inhibition curve with a large enough effect; inconclusive = small, poorly fitted or top-dose-only effect; inactive = no such curve, though single readings can be large or run the other way. Where a SMILES comes first, the peptide text is derived from it. [ ]: non-standard residue; d: D form. The star is where a group is joined. Fmoc = O=C(OCC1c2ccccc2-c2ccccc21)*; AMC = Cc1cc(=O)oc2cc(N*)ccc12; Cha = N[CH](CC1CCCCC1)C(=O)O
Assay metric: activity change, negative = inhibition

See these solved cases before continuing.
{"columns": ["Compound", "activity change, negative = inhibition"],
 "data": [
  ["CC(=O)[C@H](CC(C)C)NC(=O)[C@@H](CC(C)C)NC(=O)[C@H](CC(C)C)NC(=O)OCc1ccccc1", "inactive"],
  ["CCCCC(C)(C)[C@H](O)/C=C/[C@H]1[C@H](O)CC(=O)[C@@H]1C/C=C\\CCCC(=O)O", "8.87% [at 3.88 µM] (inactive)"],
  ["Cc1cc(=O)oc2cc(NC(=O)C(CCCCN)NC(=O)C(CC3CCCCC3)NC(=O)OCC3c4ccccc4-c4ccccc43)ccc12 (stereo not given) (Fmoc-[Cha]-Lys-{AMC}; configuration not given here)", "inactive"],
  ["CCCCC[C@H](O)CC[C@H]1[C@H](O)CC(=O)[C@@H]1CCCCCCC(=O)O", "-15% [at 3.88 µM] (inactive)"],
  ["CC(C)C(NS(=O)(=O)c1ccc(-c2ccc(Br)cc2)cc1)C(=O)O (stereo not given)", "inactive"]
]}

Form: compound = C[C@H]1C=C2C=C[C@H](C)[C@H](CC[C@@H]3C[C@@H](O)CC(=O)O3)[C@H]2[C@@H](OC(=O)[C@@H](C)CCO)C1 ; activity change, negative = inhibition = inactive

Lab note: NC1(C(=O)O)CC(C(=O)O)C1 (stereo not given) gave activity change, negative = inhibition of inactive

Given item CCCCCCCCCCCCCCCC(=O)O[C@H](CC(=O)O)C[N+](C)(C)C , the value recorded as its activity change, negative = inhibition is inactive

# compound Cc1cccc(/C=C\c2ccccc2)n1 ; its activity change, negative = inhibition = inactive

Noted for CCCCOc1cc(C[C@@H]2CNC(=O)N2)ccc1OC : its activity change, negative = inhibition reads inactive

###

- System: Zika virus NS2B-NS3 protease (unlinked complex)
- Method summary: Primary screen GU Rhodamine qHTS for Zika virus inhibitors: Unlinked NS2B-NS3 protease assay (AID 1347159); also: nearly all actives have a fitted effect of over 60% in size
- Condition: Recombinant ZIKV NS2B-NS3 protease, Rhodamine110 substrate fluorescence; series mostly up to 107 µM
Records with an inconclusive call do not appear. Activity calls are given as the source filed them. Calls come from the whole dose curve; as a rule, active = well fitted inhibition curve with a large enough effect; inconclusive = small, poorly fitted or top-dose-only effect; inactive = no such curve, though single readings can be large or run the other way.
Return exactly one item of active, inactive

Record excerpt, results attached:
{"columns": ["Compound", "Label class"],
 "data": [
  ["COc1c(N2CC3CCCNC3C2)c(F)cc2c(=O)c(C(=O)O)cn(C3CC3)c12 (configuration not stated)", "inactive"],
  ["CN(CCCNC(=O)c1ccc2nc3c(c(Cl)c2c1)CCCC3)Cc1ccccc1", "inactive"],
  ["C=C(C)C(=O)OC1[C@@H]2C(=C)C(=O)O[C@@H]2C[C@@H](C)[C@@H]2C=CC(=O)[C@@]12C (some centres not stated)", "inactive"],
  ["CC1CCN(C(c2ccc(F)cc2)c2ccc(C(C)C(=O)O)cc2-c2ccc(C(F)(F)F)cc2)CC1 (configuration not stated)", "active"],
  ["CC(=O)N[C@@H](CC(=O)O)C(=O)N[C@@H](CCC(=O)O)C(=O)N[C@H](C(=O)N[C@@H](CC(=O)O)C(=O)Nc1ccc2c(C)cc(=O)oc2c1)C(C)C", "inactive"]
]}

Please let me know the test result on file for OCC(CO)(CO)NCC(O)Cn1c2ccc(Cl)cc2c2cc(Cl)ccc21 (configuration not stated) .
inactive

Assay outcome for CC(CCC1(O)OC2CC3C4CC=C5CC(O[C@@H]6O[C@H](CO)[C@@H](O[C@@H]7O[C@H](CO)[C@@H](O)[C@H](O)[C@H]7O)[C@H](O)[C@H]6O[C@@H]6O[C@@H](C)[C@H](O)[C@@H](O)[C@H]6O)CCC5(C)C4CCC3(C)C2C1C)CO[C@@H]1O[C@H](CO)[C@@H](O)[C@H](O)[C@H]1O (some centres not stated) : what was it?
inactive
